# SYSTEM_NAME: h-GABA-A α5β3γ2 (Homo sapiens (Human), UniProt P18507+P31644)
# EXPERIMENTAL_PROTOCOL: [3H]flumazenil competition binding assay, membranes of HEK293 cells expressing human GABAA receptors
# CONDITION_NOTES: displacement of [3H]flumazenil 0.5 nM, HEK293 cells expressing human receptors, mean of two determinations; read-out: Ki h-GABA-A α5β3γ2
QUANTITY_MEASURED: pKi
The meaning of pKi here: minus log10 of the concentration in molar units.

// below: answered compounds
Cc1ccc(-c2noc(C)c2COc2ccc(C(=O)NC3CCCC(O)C3)nn2)cn1 (stereo not shown)    8.11
Cc1ccc(-c2noc(C)c2COc2ccc(C(=O)N[C@@H]3CCOC[C@H]3O)nn2)cn1    8.10
Cc1onc(-c2ccc(Cl)nc2)c1COc1ccc(C(=O)NC2(C)COC2)nn1    8.10

// next item, pKi requested
Query string: // pKi lookup, key: "CCO[C@H]1C[C@H](NC(=O)c2ccc(OCc3c(-c4ccc(C)nc4)noc3C)nn2)C1"
Result string: 8.06

----------
Below is a list of entries, each paired with its recorded Fold increase h-GABA-A α5β3γ2 oocyte value.
# SYSTEM_NAME: h-GABA-A α5β3γ2 (Homo sapiens (Human), UniProt P18507+P31644)
# EXPERIMENTAL_PROTOCOL: Two-electrode voltage clamp electrophysiology in Xenopus oocytes expressing GABAA receptors, modulation of GABA EC20 current
# Type: cell-based
# CONDITION_NOTES: Xenopus oocytes, GABA EC20, test compound at approx. 30 fold its Ki
# Protocol: Xenopus laevis oocytes at maturation stages V-VI were used for the expression of cloned mRNA encoding GABAA receptor subunits. Oocytes ready for RNA micro-injection were bought from Ecocyte, Castrop-Rauxel, Germany and stored in modified Barth's medium (composition in mM: NaCl 88, KCl 1, NaHCO32.4, HEPES 10, MgSO4 0.82, CaNO3 0.33, CaCl2) 0.33, pH=7.5) at 20° C. until the experiment. […]
The response must contain the number and no unit.

Cc1ccc(-c2noc(C)c2COc2ccc(C(=O)NC3CCS(=O)(=O)CC3)cn2)cn1    2.19

Query string: // Fold increase h-GABA-A α5β3γ2 oocyte lookup, key: "CO[C@H]1CC[C@@H](NC(=O)c2ccc(OCc3c(-c4ccc(C)nc4)noc3C)nn2)CC1"
Result string: 1.79

Query string: // Fold increase h-GABA-A α5β3γ2 oocyte lookup, key: "Cc1ccc(-c2noc(C)c2COc2cnc(C(=O)NC(C)(C)CO)cn2)cn1"
Result string: 1.45

----------
# SYSTEM_NAME: h-GABA-A α5β3γ2 (Homo sapiens (Human), UniProt P18507+P31644)
# EXPERIMENTAL_PROTOCOL: Two-electrode voltage clamp electrophysiology in Xenopus oocytes expressing GABAA receptors, modulation of GABA EC20 current
# Assay type: cell-based
# CONDITION_NOTES: Xenopus oocytes, GABA EC20, test compound at approx. 30 fold its Ki
Below is a list of entries, each paired with its recorded Fold increase h-GABA-A α5β3γ2 oocyte value.
The response must contain the number and no unit.

// below: answered compounds
Cc1ccc(-c2noc(C)c2COc2ccc(C(=O)N[C@H]3CCOC[C@@H]3O)cn2)cn1 [Example 127]    1.5
CCC[C@@H](CO)NC(=O)c1ccc(OCc2c(-c3ccc(C)nn3)noc2C)nc1 [Example 109]    1.42
Cc1ccc(-c2noc(C)c2COc2ccc(C(=O)NC(C)C(F)(F)F)nn2)cn1 (racemic) [Example 34]    1.84

Query string: // Fold increase h-GABA-A α5β3γ2 oocyte lookup, key: Cc1ccc(-c2noc(C)c2COc2cnc(C(=O)N[C@H]3CC[C@@H](C(F)(F)F)CC3)cn2)cn1 [Example 102]
Result string: 1.21

Query string: // Fold increase h-GABA-A α5β3γ2 oocyte lookup, key: CO[C@H]1CC[C@H](NC(=O)c2ccc(OCc3c(-c4ccc(C)nc4)noc3C)nn2)CC1 [Example 154]
Result string: 1.97

Query string: // Fold increase h-GABA-A α5β3γ2 oocyte lookup, key: CC1(NC(=O)c2ccc(OCc3c(-c4ccc(Cl)nc4)noc3C3CC3)nn2)COC1 [Example 177]
Result string: 2.09
